Taken from PubChem BioAssay (NCI).

system: KM20L2 colon; assay: NCI tumour cell line growth inhibition, 48 h
observable: TGI

I am curious: what TGI value has been reported for `O=C1C(c2ccccc2)=C(c2ccccc2)[C@H](c2ccccc2)[C@]1(Cc1nnn(-c2ccc([N+](=O)[O-])cc2)c1N1CCOCC1)c1ccccc1` ?
> 37.5 µM

Thanks! And C=CC1=CC(C)C[C@]1(O)C(=O)OC (stereo not given in full) ?
> 100 µM

Thanks! And `O=S1(=O)CCN(c2ccccc2CC(c2c[nH]c3ccccc23)c2c[nH]c3ccccc23)CC1` ?
27.8 µM

Thanks! And `CC(C)(C)CC(C)(C)c1ccc(OCCOCC[N+](C)(C)Cc2ccccc2)cc1` ?
18.8 µM

Thanks! And CCN(CC)CCCCC1CCN(CC(=O)N2c3ccccc3NC(=O)CC2C)CC1 (stereo not given) ?
> 100 µM

Thanks! And CC1=C(C(=O)CC(=O)C(=O)NC2C3CC4CC(C3)CC2C4)Sc2ccccc2N1 (stereo not given) ?
> 100 µM

Thanks! And `c1ccc(OCCSCCCCCCCCCCSCCOc2ccccc2)cc1` ?
> 100 µM

Thanks! And `CC[P+]1(CC)CCCC1` ?
> 100 µM

Thanks! And CC1(C)OC(COCCOCCCCCO)C(COCCOCCCCCO)O1 (stereo not given) ?
> 100 µM

Thanks! And `CC(C)(C)c1cc(CCC(=O)Nc2ccc(Cl)cc2Cl)nc(N)n1` ?
> 100 µM

* * *

system: KM12 colon; assay: NCI tumour cell line growth inhibition, 48 h; in the data active = GI50 below about 0.43 µM; inactive = the rest
Write down one outcome, taken from label 1 (active), label 0 (inactive)

Please let me know the test result on file for `COc1ccc(C(=O)C[C@]2(O)C(=O)Nc3c(Cl)ccc(Cl)c32)cc1` .
label 1

Thanks! And COc1ccc2c(c1)nc1n2C(c2ccc(F)cc2)SC1 (stereo unspecified) ?
label 0

Thanks! And `C[C@@H]1C/C=C\C(=O)O[C@H](/C=C/C#C/C=C/C(C)(C)[C@@H](O)c2cccc(O)c2Br)[C@@H](C)/C=C/[C@H](C)C[C@H](OC(N)=O)C1` ?
label 1

Thanks! And `Cc1n(Cc2ccc3ccccc3c2)c(Cl)c(Cl)[n+]1Cc1ccc2ccccc2c1` ?
label 0

Thanks! And CN(C)CCCC1(c2ccc(F)cc2)OCc2cc(-c3cncc4ccccc34)ccc21 (stereo unspecified) ?
label 0

Thanks! And `O=c1[nH]c2cc(Cl)c(Cl)cc2n2cc3ccccc3c12` ?
label 0

Thanks! And `NC(=O)c1cc(I)ccc1NC(=O)COc1ccccc1` ?
label 1

Thanks! And `Nc1ncnc2c1c(-c1ccc(Oc3ccccc3)cc1)nn2C[C@@H]1SSC[C@@H]1O` ?
label 1

Thanks! And `C1=C2CNCC3=Cc4ccc5ccccc5c4OC23Oc2c1ccc1ccccc21` ?
label 0

Thanks! And `CC[C@@]1(O)C(=O)OCc2c1cc1n(c2=O)Cc2cc3c(N)cccc3nc2-1` ?
label 1

Thanks! And `Cc1ccc(-n2c3c(c4c(CN5CCOCC5)c(O)ccc42)CCc2ccccc2C3=O)cc1` ?
label 0

* * *

system: PC-3 prostate; experiment: NCI tumour cell line growth inhibition, 48 h
Can you tell me TGI for the items I'm about to list?

I am curious: what TGI value has been reported for CC(=O)CC1(C)OC(N)=C(C#N)C1(C#N)C#N (stereo not drawn) ?
> 100 µM

Thanks! And COC(=O)C(C(=O)C(=O)NC1Nc2ccc(C)cc2S1)c1nc2ccc(Cl)cc2[nH]c1=O (stereo not drawn) ?
> 100 µM

Thanks! And `C1=C2CNCC3=Cc4ccc5ccccc5c4OC23Oc2c1ccc1ccccc21` ?
18.2 µM

Thanks! And `CN(C)C(=O)SC1=C(c2c(Cl)cccc2Cl)C(=O)c2ccccc21` ?
22.8 µM

Thanks! And `O=C(Cc1ccc(/C=C/C(=O)c2ncc[nH]2)cc1)Nc1ccc(C(F)(F)F)cc1` ?
12.4 µM

Thanks! And `COc1ccc(C2=C(OC(=O)N(C)C)c3cccn3-c3cc(Cl)ccc3S2)cc1` ?
> 10 µM

Thanks! And `CC(C)(C)OC(=O)N1CCc2c(n(C/C=C/c3ccccc3)[nH]c2=O)C1` ?
> 100 µM

Thanks! And `CCCCCCCCCCCCCCCCS(=O)(=O)c1ccc(NN)cc1` ?
> 10 µM

* * *

tested on: A498 renal; assay: NCI tumour cell line growth inhibition, 48 h
observable: TGI (µM)
Response body: numeric value in µM, unit text excluded.

I am curious: what TGI value has been reported for `CCCn1cnc2c(SCc3ccccc3)nc(N)nc21` ?
75.2

Thanks! And `Cn1cc(CO)c2ccccc21` ?
73.1

Thanks! And `COc1ccc(C(=O)C[C@]2(O)C(=O)Nc3c(Cl)ccc(Cl)c32)cc1` ?
1.52

Thanks! And `O=C(Cc1ccc(/C=C/C(=O)c2ncc[nH]2)cc1)Nc1ccc(C(F)(F)F)cc1` ?
10

Thanks! And `COc1ccc(C(=O)c2ccc(-n3cc(/C=C/[N+](=O)[O-])c4ccccc43)cc2)cc1` ?
44.9

* * *

tested on: DU-145 prostate; assay: NCI tumour cell line growth inhibition, 48 h
Classification field: true (1) = TGI at or over 20 µM; false (0) = TGI under 20 µM.

Is the recorded value of TGI equal to or greater than 20 µM for this compound? COc1ccc(-c2nc(-c3cnccn3)n(C3OC(CO)C(O)C(O)C3O)n2)cc1 (stereo not given)
true (1)

Thanks! And COc1ccc(/C=C2\CCC(CNc3ccc(Br)cc3)C2=O)cc1 (stereo not given) ?
true (1)

Thanks! And CC12CC(c3ccccc3O1)C(C(=O)Nc1cccc(F)c1)C(=O)N2 (stereo not given) ?
true (1)

Thanks! And `COc1cc2nnn3c4ncccc4c(N=O)c3c2cc1OC` ?
false (0)

Thanks! And Nc1ncc(/C=N/O)c(NCC2(CO)CC(CCc3ccccc3)C2)n1 (stereo not given) ?
true (1)

Thanks! And O=C1CSC2(CC(/C=C/c3ccccc3Br)=NN2c2cccc(S(=O)(=O)O)c2)N1c1nc2ccccc2s1 (stereo not given) ?
true (1)

Thanks! And `C[C@@H]1C/C=C\C(=O)O[C@H](/C=C/C#C/C=C/C(C)(C)[C@@H](O)c2cccc(O)c2Br)[C@@H](C)/C=C/[C@H](C)C[C@H](OC(N)=O)C1` ?
false (0)

Thanks! And `Cn1cc(CO)c2ccccc21` ?
true (1)

Thanks! And CC1(C)C2CCC13C(=O)C1OC3(C2)C2C(=O)c3c(O)cccc3C(=O)C12 (stereo not given) ?
false (0)

Thanks! And `CC(=O)O[C@H]1C(=O)N(c2cc3c4ccccc4ccc3c3ccccc23)[C@@H]1c1ccccc1` ?
true (1)

* * *

test system: HOP-62 NSCLC; assay: NCI tumour cell line growth inhibition, 48 h
observable: GI50

I am curious: what GI50 value has been reported for `Cn1cnc([N+](=O)[O-])c1Sc1nc(N)nc2nc[nH]c12` ?
1220 nM

Thanks! And COc1ccc(-c2nc3c(c(=O)n2C(C)=O)C(c2ccc(Cl)cc2)c2sc4c(Cl)cccc4c2O3)cc1 (centres undefined) ?
275 nM

Thanks! And `COc1ccccc1/C=C\C(=O)c1ccccc1` ?
17300 nM

Thanks! And C=C(CNCCc1ccc(O)cc1)[C@@H]1CC[C@]2(CO)CC[C@]3(C)[C@H](CC[C@@H]4[C@@]5(C)CCC(N)C(C)(C)[C@@H]5CC[C@]43C)[C@@H]12 (some centres undefined) ?
1730 nM

Thanks! And `C=CC(=O)Nc1cccc(Nc2nc(Nc3ccc(OCCOC(F)F)cc3)ncc2F)c1` ?
2380 nM

Thanks! And CC1(C)C2CCC13C(=O)C1OC3(C2)C2C(=O)c3c(O)cccc3C(=O)C12 (centres undefined) ?
16100 nM

Thanks! And `CC[C@@]1(O)C(=O)OCc2c1cc1n(c2=O)Cc2cc3c(N)cccc3nc2-1` ?
6.37 nM

Thanks! And c1ccc(CC(NCCNC(Cc2ccccc2)c2ccccc2)c2ccccc2)cc1 (centres undefined) ?
1170 nM

Thanks! And `O=C(Nc1ccc(Cl)cc1)Nc1ccccc1CNc1nc(Nc2ccc(OCCN3CCCC3)cc2)ncc1Cl` ?
1280 nM

* * *

system: CAKI-1 renal; experiment: NCI tumour cell line growth inhibition, 48 h
observable: TGI

I am curious: what TGI value has been reported for C[C@@]12CCCC(=O)N1[C@@H](CO)C(c1ccccc1)O2 (stereo not given in full) ?
> 100 µM

Thanks! And `COc1ccc(-c2c3ccccc3c(-c3ccc(OCCCCCBr)cc3)c3ccccc23)cc1` ?
> 100 µM

Thanks! And `Cc1ccccc1NC(=O)C(=O)CC(=O)c1ccc([N+](=O)[O-])cc1` ?
> 100 µM

Thanks! And `Fc1cc(-c2nnc3n2N=C(c2ccc(Cl)cc2Cl)CS3)c(Cl)cc1Cl` ?
> 100 µM

Thanks! And Nc1ncc(/C=N/O)c(NCC2(CO)CC(CCc3ccccc3)C2)n1 (stereo not given) ?
> 100 µM

Thanks! And `Cn1c(=O)sc2cc(C(=S)N3CCOCC3)ccc21` ?
> 100 µM

Thanks! And `CCCCCCOc1ccc(C(=N)N(CCCC)CCCC)c2ccccc12` ?
2.86 µM

Thanks! And `CN(C)C(=O)SC1=C(c2c(Cl)cccc2Cl)C(=O)c2ccccc21` ?
5.72 µM

Thanks! And NC(=O)c1c[se]c(C2OC(COP(=O)(O)CP(=O)(O)OCC3OC(n4cnc5c(N)ncnc54)C(O)C3O)C(O)C2O)n1 (stereo not given) ?
> 100 µM

Thanks! And `COc1ccc(CC2=NCCc3cc(OC)c(OC)cc32)cc1Br` ?
59.3 µM
